These entries and their values trace back to the NIST ThermoML archive (doi:10.1016/j.jct.2011.11.005).

assay: activity coefficient (dimensionless); of the first substance listed, at infinite dilution; xn = mol fraction of the nth substance listed; conditions: 373 K; 101.3 kPa; Liquid; open tubular wall-coated column chromatography; x1 = 0
PROPERTY: activity coefficient

I = CC#N [acetonitrile] + CC(=O)[O-].CCn1cc[n+](C)c1
II = CCOC(C)=O [ethyl acetate] + CC(=O)[O-].CCn1cc[n+](C)c1
Exercise: Compare I and II and name the one whose reported activity coefficient is smaller. // return label of chosen record
Solution: I
(I: 0.86, II: 5.62)

A = C1COCCO1 [1,4-dioxane] + CC(=O)[O-].CCn1cc[n+](C)c1
B = c1ccccc1 [benzene] + CC(=O)[O-].CCn1cc[n+](C)c1
Exercise: Which item exceeds the other in activity coefficient, A or B ? // return label of chosen record
Solution: B
(B: 3.44, A: 2.39)

----------
test: activity coefficient (dimensionless); of the first substance listed, at infinite dilution; xn = mol fraction of the nth substance listed; details: 383 K; 101.3 kPa; Liquid; open tubular wall-coated column chromatography; x1 = 0
PROPERTY: activity coefficient

[
  {
    "COMPOUND": "C1CCOC1 [tetrahydrofuran] + CC(=O)[O-].CCn1cc[n+](C)c1",
    "QUANTITATIVE_RESULT": 3.94
  }
]

a = c1ccccc1 [benzene] + CC(=O)[O-].CCn1cc[n+](C)c1
b = CC#N [acetonitrile] + CC(=O)[O-].CCn1cc[n+](C)c1
Exercise: Compare a and b and name the one whose reported activity coefficient is smaller. // return label of chosen record
Solution: b
(b: 0.91, a: 3.49)

----------
experiment: activity coefficient (dimensionless); of the first substance listed, at infinite dilution; xn = mol fraction of the nth substance listed; details: 333 K; 101.3 kPa; Liquid; open tubular wall-coated column chromatography; x1 = 0
PROPERTY: activity coefficient

Please review the following examples before continuing.
[
  {
    "COMPOUND": "CC#N [acetonitrile] + CC(=O)[O-].CCn1cc[n+](C)c1",
    "QUANTITATIVE_RESULT": 0.76
  },
  {
    "COMPOUND": "C1CCOC1 [tetrahydrofuran] + CC(=O)[O-].CCn1cc[n+](C)c1",
    "QUANTITATIVE_RESULT": 3.49
  },
  {
    "COMPOUND": "C1COCCO1 [1,4-dioxane] + CC(=O)[O-].CCn1cc[n+](C)c1",
    "QUANTITATIVE_RESULT": 2.29
  }
]

I = C=CCCCC [hex-1-ene] + CC(=O)[O-].CCn1cc[n+](C)c1
II = c1ccccc1 [benzene] + CC(=O)[O-].CCn1cc[n+](C)c1
Exercise: Compare I and II and name the one whose reported activity coefficient is smaller. // return label of chosen record
Solution: II
(II: 3.06, I: 35.1)

----------
experiment: activity coefficient (dimensionless); of the first substance listed, at infinite dilution; xn = mol fraction of the nth substance listed; details: 393 K; 101.3 kPa; Liquid; Open tubular Wall-Coated Column Chromatography; x1 = 0
PROPERTY: activity coefficient

I = CC(C)O [propan-2-ol] + CC(=O)[O-].CCn1cc[n+](C)c1
II = CCCO [propan-1-ol] + CC(=O)[O-].CCn1cc[n+](C)c1
Exercise: Which item exceeds the other in activity coefficient, I or II ? // return label of chosen record
Solution: I
(I: 0.16, II: 0.11)
